# System: Human tumour cells (cell line panel)
# Method notes: Proliferation assay: cell line panel (crystal violet, 4 days)
# Type: cell-based
# Condition: SK-HEP1, SK-HEP-1, liver cancer, 4000 cells/well, read-out: Result Category, IC50 (mean)
# Description: Human tumour cells were originally obtained from the American Type Culture Collection (ATCC), from Cell Line Services GmbH (CLS), from the Deutsche Sammlung von Mikroorganismen und Zellkulturen (DSMZ, German Collection of Microorganisms and Cell Cultures), from the Japanese Cancer Research Resources Bank (JCRB), from Public Health England, from the European Collection of Authenticated Cell Cultures (ECACC), from Asterand Biosciences, or from the National Cancer Institute (NCI). […]
Parameter measured: IC50

Task: Which IC50 is listed for Brc1cnn2c(NCc3nc4ccccc4[nH]3)nc(N3CCOCC3)nc12 ?
Output: ≤ 0.03 µM
